System: Rattus norvegicus
Assay: Distribution (percent dose/g of tissue) of radioactivity 24 hr after intravenous administration of [125I]-labeled compound in rat lung
Type: ADME, organism-based
Details: in vivo
Below, each entry is listed alongside its reported Activity.
PARAMETER_MEASURED: Activity

>>> test_result("CC(C)CCCC(C)C1CCC2C3CC=C4CC(OC(=O)CCCc5ccc(I)cc5)CCC4(C)C3CCC12C (stereo not drawn)")
"0.4 % dose (g of tissue)-1"
>>> test_result("CC(C)CCCC(C)C1CCC2C3CC=C4CC(OC(=O)c5cc(I)c(I)c(I)c5)CCC4(C)C3CCC12C (stereo not drawn)")
"0.97 % dose (g of tissue)-1"
>>> test_result("CC(C)CCCC(C)C1CCC2C3CC=C4CC(OC(=O)c5cccc(I)c5)CCC4(C)C3CCC12C (stereo not drawn)")
"0.46 % dose (g of tissue)-1"

---

System: Rattus norvegicus
Test: Distribution (percent dose/g of tissue) of radioactivity 24 hr after intravenous administration of [125I]-labeled compound in rat adrenal cortex
Format: ADME, organism-based
Settings: in vivo
Below, each entry is listed alongside its reported Activity.
PARAMETER_MEASURED: Activity

>>> test_result("CC(C)CCCC(C)C1CCC2C3CC=C4CC(OC(=O)Cc5ccc(I)cc5)CCC4(C)C3CCC12C (stereo not given)")
"3.29 % dose (g of tissue)-1"
>>> test_result("CC(C)CCCC(C)C1CCC2C3CC=C4CC(OC(=O)Cc5ccccc5I)CCC4(C)C3CCC12C (stereo not given)")
"9.19 % dose (g of tissue)-1"
>>> test_result("CC(C)CCCC(C)C1CCC2C3CC=C4CC(OC(=O)Cc5cccc(I)c5)CCC4(C)C3CCC12C (stereo not given)")
"3.4 % dose (g of tissue)-1"
>>> test_result("CC(C)CCCC(C)C1CCC2C3CC=C4CC(OC(=O)CCCc5ccc(I)cc5)CCC4(C)C3CCC12C (stereo not given)")
"1.94 % dose (g of tissue)-1"
>>> test_result("CC(C)CCCC(C)C1CCC2C3CC=C4CC(OC(=O)c5ccccc5I)CCC4(C)C3CCC12C (stereo not given)")
"14.67 % dose (g of tissue)-1"
